test_system: NMDA receptor
protocol_notes: [3H] MK-801 binding test on rat brain membrane specimen
measurement_context: read-out: Ki (NMDA receptor affinity)
Where a name gives a salt, the structure may show the parent alone.
Overview of reported Ki across a group of molecules:
observed_property: Ki (nM)

>  <molecule>
COc1ccccc1C1(N)c2ccccc2CC1(C)C (centres unmarked) [Example 18, hydrochloride]

>  <uom>
nM

>  <observed_result>
300

$$$$
>  <molecule>
CCC1(N)c2cccc(C)c2CC1(C)C (centres unmarked)

>  <uom>
nM

>  <observed_result>
900

$$$$
>  <molecule>
CC1(C)Cc2ccccc2C1(C)N (centres unmarked) [Example 23, hydrochloride]

>  <uom>
nM

>  <observed_result>
900

$$$$
>  <molecule>
CC1(C)Cc2ccccc2C1(N)c1cccc(O)c1 (centres unmarked)

>  <uom>
nM

>  <observed_result>
100

$$$$
>  <molecule>
CC1(C)Cc2ccc(F)cc2C1(C)N (centres unmarked) [Example 41, hydrochloride]

>  <uom>
nM

>  <observed_result>
800

$$$$

From: patent US8013018B2
